# Tested on: A549
# method: Growth inhibition of human A549 cells after 72 hrs by SRB assay
# Assay type: functional
# test-parameters: A549, 72 h, read-out: ED50 (the source's name)
Listed below: EC50 values for each entry.
observable: EC50 (µM)

>  <sample-smiles>
CC(=O)O[C@@H]1CC[C@]2(C)[C@H](CC[C@@]3(CO3)[C@H]2/C=C/C2=CCOC2=O)[C@]1(C)COC(c1ccccc1)(c1ccccc1)c1ccccc1

>  <measure-unit>
µM

>  <val>
8.16

$$$$
>  <sample-smiles>
C=C1CC[C@@H]2[C@](C)(CO[Si](C)(C)C(C)(C)C)[C@H](OC(C)=O)CC[C@@]2(C)[C@@H]1/C=C/C1=CCOC1=O

>  <measure-unit>
µM

>  <val>
9.18

$$$$
>  <sample-smiles>
CC(=O)O[C@@H]1CC[C@]2(C)[C@H](CC[C@@]3(CO3)[C@H]2/C=C/C2=CCOC2=O)[C@]1(C)CO[Si](c1ccccc1)(c1ccccc1)C(C)(C)C

>  <measure-unit>
µM

>  <val>
8.31

$$$$
>  <sample-smiles>
C=C1CC[C@@H]2[C@](C)(COC(c3ccccc3)(c3ccccc3)c3ccccc3)[C@H](OC(C)=O)CC[C@@]2(C)[C@@H]1/C=C/C1=CCOC1=O

>  <measure-unit>
µM

>  <val>
12

$$$$
>  <sample-smiles>
C=C1CC[C@@H]2[C@](C)(CO[Si](c3ccccc3)(c3ccccc3)C(C)(C)C)[C@H](OC(C)=O)CC[C@@]2(C)[C@@H]1/C=C/C1=CCOC1=O

>  <measure-unit>
µM

>  <val>
9.47

$$$$

###

# method: Growth inhibition of human KKU-M213 cells after 72 hrs by SRB assay
# Format: functional
# test-parameters: KKU-M213, 72 h, read-out: ED50 (the source's name)
pEC50: −log10 of the molar value.
Listed below: pEC50 values for each entry.
observable: pEC50

>  <sample-smiles>
C=C1CC[C@@H]2[C@](C)(COC(C)=O)[C@H](O)CC[C@@]2(C)[C@@H]1/C=C/C1=CCOC1=O

>  <observable>
pEC50

>  <val>
< 4.30

$$$$
>  <sample-smiles>
CC(=O)OC[C@@]1(C)[C@H]2CC[C@@]3(CO3)[C@@H](/C=C/C3=CCOC3=O)[C@]2(C)CC[C@H]1OC(C)=O

>  <observable>
pEC50

>  <val>
< 4.30

$$$$
>  <sample-smiles>
C=C1CC[C@@H]2[C@](C)(CO)[C@H](O)CC[C@@]2(C)[C@@H]1/C=C/C1=CCOC1=O

>  <observable>
pEC50

>  <val>
< 4.30

$$$$
